- ASSAYED_TARGET: Cellular tumor antigen p53 (Homo sapiens) (UniProt P04637)
- Sequence (P04637 whole entry, looked up): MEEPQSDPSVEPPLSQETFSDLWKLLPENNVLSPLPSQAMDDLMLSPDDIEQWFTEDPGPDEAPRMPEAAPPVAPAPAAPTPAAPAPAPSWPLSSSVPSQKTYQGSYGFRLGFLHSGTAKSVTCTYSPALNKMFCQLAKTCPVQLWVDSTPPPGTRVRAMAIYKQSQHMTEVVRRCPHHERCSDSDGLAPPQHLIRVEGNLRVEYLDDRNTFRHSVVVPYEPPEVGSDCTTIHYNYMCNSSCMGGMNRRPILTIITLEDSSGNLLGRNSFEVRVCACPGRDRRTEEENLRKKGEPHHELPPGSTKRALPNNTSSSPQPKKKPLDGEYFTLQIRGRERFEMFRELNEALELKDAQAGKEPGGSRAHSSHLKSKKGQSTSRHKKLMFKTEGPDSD
- PROCEDURE_TEXT: TOX21_p53_BLA_p3_ratio: Tox21 HCT-116 p53 Agonism Beta-lactamase Assay, Ratio, Phase 3 (AID 2283596)
Records with an inconclusive call do not appear. Calls of active or inactive are those of the source. The calls were made as follows: active = hit-call score of the fitted dose curve at least 0.9, where 1 is the maximum; inconclusive = response in the unintended direction; inactive = score below 0.9.
Possible outcomes: active, inactive

molecule=C=C[C@]1(C)C[C@@H](OC(=O)CO)[C@]2(C)[C@H](C)CC[C@]3(CCC(=O)[C@H]32)[C@@H](C)[C@@H]1O class_label=inactive
molecule=N=C(N)c1ccc(OCCCOc2ccc(C(=N)N)cc2Br)c(Br)c1 class_label=inactive
molecule=Clc1cc(Cl)c(OCC#CI)cc1Cl class_label=inactive
molecule="C[N+]1(CC2COC(c3ccccc3)(c3ccccc3)O2)CCCCC1 (centres undefined)" class_label=inactive
molecule=Cc1cnc(C(=O)NCCc2ccc(S(=O)(=O)NC(=O)NC3CCCCC3)cc2)cn1 class_label=inactive
molecule=COc1cccc(N(C)C(=S)Oc2ccc3c(c2)CCCC3)n1 class_label=inactive
molecule=O=C1NCCN1 class_label=inactive
molecule=CNC(=O)c1cc(Oc2ccc(NC(=O)Nc3ccc(Cl)c(C(F)(F)F)c3)cc2)ccn1 class_label=active
molecule="OC(CN1CCC(Cc2ccc(F)cc2)CC1)c1ccc(Cl)cc1 (centres undefined)" class_label=inactive
molecule="CCCCCCCCCCCCCC(=O)OCC(COP(=O)([O-])OCC[N+](C)(C)C)OC(=O)CCCCCCCCCCCCC (centres undefined)" class_label=inactive
molecule=O=C(Cl)c1ccccc1[N+](=O)[O-] class_label=inactive
molecule="C#CCC(Cc1cnc2nc(N)nc(N)c2n1)c1ccc(C(=O)N[C@@H](CCC(=O)O)C(=O)O)cc1 (some centres undefined)" class_label=active
molecule=COc1ccc(C(=O)CC(=O)c2ccc(C(C)(C)C)cc2)cc1 class_label=inactive
molecule="Cc1ccc(S(=O)(=O)NC(=O)NN2CC3CCCC3C2)cc1 (centres undefined)" class_label=inactive
molecule=O=C(CCS)OCC(COC(=O)CCS)(COC(=O)CCS)COC(=O)CCS class_label=active
molecule="C[S+](C)CCC(N)C(=O)O (centres undefined)" class_label=inactive
molecule=C[C@]12CCC(=O)C=C1C=C[C@@H]1[C@@H]2CC[C@@]2(C)[C@H]1CC[C@@]21CCC(=O)O1 class_label=inactive
molecule="CCC(c1ccccc1)c1noc(CCN(CC)CC)n1 (centres undefined)" class_label=inactive
molecule=CCC(=O)OC/C=C/c1ccccc1 class_label=inactive
molecule=O=C1C(=O)c2ncccc2-c2cccnc21 class_label=active
molecule="CC1(O)CSC(C)(O)CS1 (centres undefined)" class_label=inactive
molecule=C[C@]12C=CC(=O)C=C1CC[C@@H]1[C@@H]2[C@@H](O)C[C@@]2(C)[C@H]1CC[C@]2(O)C(=O)COC(=O)CCC(=O)O class_label=inactive
molecule=SCCCCCCCCS class_label=inactive
molecule=CCCCCCOc1ccccc1C(N)=O class_label=inactive
molecule=Cc1cccc(C)c1NC(=O)CN1CCN(CCCC(c2ccc(F)cc2)c2ccc(F)cc2)CC1 class_label=inactive
molecule=O=S(=O)(O)CCO class_label=inactive
molecule=O=C(O)c1ccccc1[N+](=O)[O-] class_label=inactive
molecule=O=[N+]([O-])c1ccccc1CCO class_label=inactive
molecule=CC(=O)Oc1ccc2c(c1)CC[C@@H]1[C@@H]2CC[C@]2(C)[C@@H](O)CC[C@@H]12 class_label=inactive
molecule=CC(C)=CCC1=C(O)c2ccccc2C(=O)C1=O class_label=active
molecule=CCCCCCCCCCCCCCCCCCCCCC(=O)Nc1ccn([C@@H]2O[C@H](CO)[C@@H](O)[C@@H]2O)c(=O)n1 class_label=active
molecule=CN(Cc1cc(Br)cc(Br)c1N)C1CCCCC1 class_label=inactive
molecule=CC(C)(C)OC(=O)c1cccc(N)c1 class_label=inactive
molecule=N=C(N)c1ccc(OCCCOc2ccc(C(=N)N)cc2)cc1 class_label=inactive
molecule=O=[N+]([O-])c1c(Cl)cccc1-c1c[nH]cc1Cl class_label=active
molecule=C[C@@H](O)[C@H]1C(=O)N2C(C(=O)O)=C(SCCN=CN)C[C@H]12 class_label=inactive
molecule=O=C(O)c1ccccc1Cl class_label=inactive
molecule=C=CCNC(N)=S class_label=inactive
molecule="NC(Cc1ccc(Cl)cc1)C(=O)O (centres undefined)" class_label=inactive
molecule=CCN(CC)c1ccc2c(-c3ccc(S(=O)(=O)O)cc3S(=O)(=O)[O-])c3ccc(=[N+](CC)CC)cc-3oc2c1 class_label=inactive
molecule=CCOC(=O)Cn1c(=O)sc2cccc(Cl)c21 class_label=inactive
molecule=CN[C@H](CC(C)C)C(=O)N[C@H]1C(=O)N[C@@H](CC(N)=O)C(=O)N[C@H]2C(=O)N[C@H]3C(=O)N[C@H](C(=O)N[C@H](C(=O)O)c4cc(O)cc(O)c4-c4cc3ccc4O)[C@H](O)c3ccc(c(Cl)c3)Oc3cc2cc(c3O[C@@H]2O[C@H](CO)[C@@H](O)[C@H](O)[C@H]2O[C@H]2C[C@](C)(N)[C@H](O)[C@H](C)O2)Oc2ccc(cc2Cl)[C@H]1O class_label=inactive
molecule=CCCCOCCOCCOCCCC class_label=inactive
molecule=Oc1c(I)cc(Cl)c2cccnc12 class_label=inactive
